From: patent US9169241B2

system: MDA-MB231; experiment: Cell vitality assay (ATP assay, CellTiter-Glo); type: cell-based; details: Homo sapiens, MDA-MB-231; MDA-MB231, 72 h; Table IIa; read-out: IC50 ATP-Assay after 72 h MDA-MB231

compound | IC50
COc1cc2c(Oc3ccc(NS(=O)(=O)c4ccc(Cl)s4)cc3F)ccnc2cc1OCCCN1CCCC(C)C1 (stereo not shown) | ≤ 12.5 µM
COc1cc2c(Oc3ccc(NS(=O)(=O)c4cc(C)ccc4F)cc3F)ccnc2cc1OCCCN1CCCC(C)C1 (stereo not shown) | ≤ 12.5 µM
COc1cc2c(Oc3ccc(NS(=O)(=O)c4cccc(C)c4)cc3F)ccnc2cc1OCCCN1CCCC(C)C1 (stereo not shown) | 12.5 to 50 µM
COc1cc2c(Oc3ccc(NS(=O)(=O)c4ccc(F)c(C#N)c4)cc3F)ccnc2cc1OCCCN1CCCC(C)C1 (stereo not shown) | 12.5 to 50 µM
COc1cc2c(Oc3ccc(NS(=O)(=O)c4ccccc4[N+](=O)[O-])cc3F)ccnc2cc1OCCCN1CCCCC1 | ≤ 12.5 µM
COc1cc2c(Oc3ccc(NS(=O)(=O)c4cccc(Oc5ccccc5)c4)cc3F)ccnc2cc1OCCCN1CCCCC1 | ≤ 12.5 µM
COc1cc2c(Oc3ccc(NS(=O)(=O)c4ccccc4OC(F)(F)F)cc3F)ccnc2cc1OCCCN1CCN(C)CC1 | ≤ 12.5 µM
